Cited source for all entries: ChEMBL document CHEMBL4732217

target: Serine/threonine-protein kinase B-raf (Homo sapiens, UniProt P15056, V600E); assay: Inhibition of BRAF V600E mutant (unknown origin) using Ser/Thr 03 as substrate after 1 hr in presence of ATP by Z'-LYTE assay
Sequence (P15056 2-766 V600E limits assumed): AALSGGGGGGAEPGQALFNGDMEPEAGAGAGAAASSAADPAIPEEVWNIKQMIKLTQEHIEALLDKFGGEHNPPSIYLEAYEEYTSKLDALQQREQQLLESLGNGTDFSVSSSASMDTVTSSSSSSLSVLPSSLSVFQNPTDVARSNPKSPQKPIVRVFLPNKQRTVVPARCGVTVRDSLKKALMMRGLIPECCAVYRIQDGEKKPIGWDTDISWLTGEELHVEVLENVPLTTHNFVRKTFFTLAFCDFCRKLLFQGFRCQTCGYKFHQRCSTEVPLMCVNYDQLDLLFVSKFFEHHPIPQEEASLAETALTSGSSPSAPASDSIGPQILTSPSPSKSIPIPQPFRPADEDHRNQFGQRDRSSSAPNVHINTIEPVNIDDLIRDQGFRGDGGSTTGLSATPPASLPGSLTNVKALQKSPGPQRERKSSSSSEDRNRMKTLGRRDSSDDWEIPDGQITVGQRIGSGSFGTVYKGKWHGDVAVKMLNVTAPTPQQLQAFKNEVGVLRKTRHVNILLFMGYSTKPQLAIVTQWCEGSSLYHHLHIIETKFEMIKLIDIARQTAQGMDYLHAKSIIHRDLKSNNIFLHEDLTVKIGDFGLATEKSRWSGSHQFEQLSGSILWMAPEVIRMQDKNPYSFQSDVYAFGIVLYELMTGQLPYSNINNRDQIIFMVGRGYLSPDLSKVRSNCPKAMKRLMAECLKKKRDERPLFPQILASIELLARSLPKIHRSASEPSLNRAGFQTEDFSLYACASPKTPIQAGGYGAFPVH
quantity: IC50 (nM)

{"item.smiles": "Cc1ccc(S(=O)(=O)NCCCNc2nccc(-c3[nH]c(-c4ccccc4)nc3-c3ccc(Cl)c(O)c3)n2)cc1", "test.target": "Serine/threonine-protein kinase B-raf (Homo sapiens, UniProt P15056, V600E)", "quantity": "IC50", "unit.spec": "nM", "measured": 8.04}
{"item.smiles": "O=S(=O)(NCCCNc1nccc(-c2[nH]c(-c3ccccc3)nc2-c2ccc(Cl)c(O)c2)n1)c1ccc(O)cc1", "test.target": "Serine/threonine-protein kinase B-raf (Homo sapiens, UniProt P15056, V600E)", "quantity": "IC50", "unit.spec": "nM", "measured": 7.81}

A = Cc1ccc(S(=O)(=O)NCCCNc2nccc(-c3[nH]c(-c4ccccc4)nc3-c3ccc(F)c(O)c3)n2)cc1
B = O=S(=O)(NCCCNc1nccc(-c2[nH]c(-c3ccccc3)nc2-c2ccc(Cl)c(O)c2)n1)c1cccc(F)c1
Could you determine which record has the numerically smaller IC50? Candidates: A and B Mark your selection by writing its label.
A
(A: 8.68 nM, B: 14.8 nM)
